Target: MET F1200I (Homo sapiens, UniProt P08581, F1200I)
Construct: purchased Signalchem M52-12GG/Y767-2
Sequence (P08581 25-1390 F1200I): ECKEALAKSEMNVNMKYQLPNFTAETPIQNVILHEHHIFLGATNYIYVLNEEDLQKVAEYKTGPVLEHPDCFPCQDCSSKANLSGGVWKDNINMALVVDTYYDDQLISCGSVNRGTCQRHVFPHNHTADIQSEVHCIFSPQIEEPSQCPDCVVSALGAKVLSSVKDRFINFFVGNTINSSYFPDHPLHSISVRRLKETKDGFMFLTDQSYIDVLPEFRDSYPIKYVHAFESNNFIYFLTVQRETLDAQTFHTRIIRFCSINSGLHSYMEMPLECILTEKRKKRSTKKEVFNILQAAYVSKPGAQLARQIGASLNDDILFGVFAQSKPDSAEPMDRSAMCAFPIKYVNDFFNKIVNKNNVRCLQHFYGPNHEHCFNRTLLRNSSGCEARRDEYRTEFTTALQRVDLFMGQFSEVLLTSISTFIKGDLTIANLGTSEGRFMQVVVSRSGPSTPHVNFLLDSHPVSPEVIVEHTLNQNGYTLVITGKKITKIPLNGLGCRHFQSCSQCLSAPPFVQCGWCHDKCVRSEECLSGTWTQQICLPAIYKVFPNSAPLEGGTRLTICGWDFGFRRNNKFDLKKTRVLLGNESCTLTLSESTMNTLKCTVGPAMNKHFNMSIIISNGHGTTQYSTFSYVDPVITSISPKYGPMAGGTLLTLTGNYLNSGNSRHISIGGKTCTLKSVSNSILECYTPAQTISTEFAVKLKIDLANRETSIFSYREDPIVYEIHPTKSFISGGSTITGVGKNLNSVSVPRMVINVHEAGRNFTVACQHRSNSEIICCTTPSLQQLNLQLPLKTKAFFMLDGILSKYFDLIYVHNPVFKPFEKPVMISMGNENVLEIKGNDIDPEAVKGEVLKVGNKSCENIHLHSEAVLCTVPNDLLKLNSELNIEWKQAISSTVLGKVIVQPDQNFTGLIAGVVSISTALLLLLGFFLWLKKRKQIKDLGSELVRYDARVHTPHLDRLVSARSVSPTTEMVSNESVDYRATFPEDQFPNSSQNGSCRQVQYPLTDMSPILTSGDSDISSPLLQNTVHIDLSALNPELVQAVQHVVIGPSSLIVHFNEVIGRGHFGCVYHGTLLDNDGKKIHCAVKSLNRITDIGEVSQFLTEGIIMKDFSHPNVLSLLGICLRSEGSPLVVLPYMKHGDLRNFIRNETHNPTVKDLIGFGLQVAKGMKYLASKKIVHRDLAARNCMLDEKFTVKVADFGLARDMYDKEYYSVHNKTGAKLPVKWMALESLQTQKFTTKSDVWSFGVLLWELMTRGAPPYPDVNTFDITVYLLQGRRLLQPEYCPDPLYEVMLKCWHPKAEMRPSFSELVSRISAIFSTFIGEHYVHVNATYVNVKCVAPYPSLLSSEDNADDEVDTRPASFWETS
Assay: Kinase inhibition experiment (HTRF KinEASE-TK kit), mutant MET F1200I
Format: biochemical
Details: 10 concentrations, 3-fold dilution
Assay endpoint: IC50 (nM)

Previously resolved entries follow.
Molecule: O=C(Nc1ccc(Oc2ccnc3[nH]nc(NCC(CO)CO)c23)c(F)c1)c1cccc(-c2ccc(F)cc2)[n+]1[O-]
Recorded measurement: 5.8
//
Molecule: COc1ccc(C(=O)Nc2ccc(Oc3ccnc4[nH]nc(N[C@H](C)CO)c34)c(F)c2)[n+]([O-])c1-c1ccc(F)cc1
Recorded measurement: 2.3
//
Molecule: C[C@H](CO)Nc1n[nH]c2nccc(Oc3ccc(NC(=O)c4ccc(Cl)c(-c5ccc(F)cc5)[n+]4[O-])cc3Cl)c12
Recorded measurement: 11.4
//
Molecule: C[C@@H](CO)Cn1ccc2ncnc(Oc3ccc(NC(=O)c4cccc(-c5ccc(F)cc5)[n+]4[O-])cc3F)c21
Recorded measurement: 8.5

(I) C[C@H](CO)Nc1n[nH]c2nccc(Oc3cc(F)c(NC(=O)c4ccc(Cl)c(-c5ccc(F)cc5)[n+]4[O-])cc3F)c12
(II) O=C(Nc1ccc(Oc2ccnc3[nH]nc(NC4CC(CO)C4)c23)c(Cl)c1)c1cccc(-c2ccc(F)cc2)[n+]1[O-] (stereo not drawn)
Select one: I or II . Criterion: greater recorded IC50. Refer to your chosen entry by its label in the reply. I

----------
Target: MET F1200I (Homo sapiens, UniProt P08581, F1200I)
Construct: purchased Signalchem M52-12GG/Y767-2
Test: Kinase inhibition experiment (HTRF KinEASE-TK kit), mutant MET F1200I
Type: biochemical
Details: 10 concentrations, 3-fold dilution
Assay endpoint: IC50 (nM)

Previously resolved entries follow.
Compound: Cc1ccc(C(=O)Nc2ccc(Oc3ccnc4[nH]nc(N[C@H](C)CO)c34)cc2F)[n+]([O-])c1-c1ccc(F)cc1 [Final product 160]
Test target: MET F1200I (Homo sapiens, UniProt P08581, F1200I)
Assay endpoint: IC50
Recorded measurement: 12.9
//
Compound: C[C@@H](CO)Nc1n[nH]c2nccc(Oc3ccc(NC(=O)c4cccc(-c5ccc(F)cc5)[n+]4[O-])cc3F)c12 [Final product 3]
Test target: MET F1200I (Homo sapiens, UniProt P08581, F1200I)
Assay endpoint: IC50
Recorded measurement: 18.3

(I) CCc1ccc(C(=O)Nc2ccc(Oc3ccnc4[nH]nc(N[C@H](C)CO)c34)c(F)c2)[n+]([O-])c1-c1ccc(F)cc1 [Final product 80]
(II) O=C(Nc1ccc(Oc2ccnc3[nH]nc(NC4(CO)CC4)c23)c(F)c1)c1cccc(-c2ccc(F)cc2)[n+]1[O-] [Final product 22]
(III) O=C(Nc1ccc(Oc2ccnc3[nH]nc(N[C@H]4CC[C@@H](O)C4)c23)c(Cl)c1)c1cccc(-c2ccc(F)cc2)[n+]1[O-] [Final product 114]
(IV) COc1ccc(C(=O)Nc2ccc(Oc3ccnc4[nH]nc(N[C@H](C)CO)c34)c(Cl)c2)[n+]([O-])c1-c1ccc(F)cc1 [Final product 138]
Falling order of IC50, please. Please, when replying, give the labels in the order that was requested. II, III, I, IV

----------
Molecular target: MET F1200I (Homo sapiens, UniProt P08581, F1200I)
Construct: purchased Signalchem M52-12GG/Y767-2
Test: Kinase inhibition experiment (HTRF KinEASE-TK kit), mutant MET F1200I
Format: biochemical
Conditions: 10 concentrations, 3-fold dilution
Procedure: The activity of the compounds was determined by detecting the residual amount of ATP after reacting with wild-type or mutant MET protein kinase by using an HTRF KinEASE-TK kit. […] 5) the fluorescence signals at 615 nm (cryptate) and 665 nm (XL665) were read with Envision 2104 or TECAN. […]
Assay endpoint: IC50 (nM)

Compound: C[C@H](CO)Nc1n[nH]c2nccc(Oc3ccc(NC(=O)c4ccc(OCC(F)F)c(-c5ccc(F)cc5)[n+]4[O-])cc3Cl)c12 [Final product 141]
Value units: nM
Recorded measurement: 33

(a) C[C@H](CO)Nc1n[nH]c2nccc(Oc3ccc(NC(=O)c4ccc(Cl)c(-c5ccc(Cl)cc5)[n+]4[O-])cc3F)c12 [Final product 65]
(b) CC(O)C1CN(c2n[nH]c3nccc(Oc4ccc(NC(=O)c5cccc(-c6ccc(F)cc6)[n+]5[O-])cc4Cl)c23)C1 (stereo not drawn) [Final product 107]
# query: argmin of IC50 over a and b Refer to your chosen entry by its label in the reply. b

----------
Molecular target: MET D1228N (Homo sapiens, UniProt P08581, D1228N)
Construct: purchased Signalchem M52-12IG
Sequence (P08581 25-1390 D1228N): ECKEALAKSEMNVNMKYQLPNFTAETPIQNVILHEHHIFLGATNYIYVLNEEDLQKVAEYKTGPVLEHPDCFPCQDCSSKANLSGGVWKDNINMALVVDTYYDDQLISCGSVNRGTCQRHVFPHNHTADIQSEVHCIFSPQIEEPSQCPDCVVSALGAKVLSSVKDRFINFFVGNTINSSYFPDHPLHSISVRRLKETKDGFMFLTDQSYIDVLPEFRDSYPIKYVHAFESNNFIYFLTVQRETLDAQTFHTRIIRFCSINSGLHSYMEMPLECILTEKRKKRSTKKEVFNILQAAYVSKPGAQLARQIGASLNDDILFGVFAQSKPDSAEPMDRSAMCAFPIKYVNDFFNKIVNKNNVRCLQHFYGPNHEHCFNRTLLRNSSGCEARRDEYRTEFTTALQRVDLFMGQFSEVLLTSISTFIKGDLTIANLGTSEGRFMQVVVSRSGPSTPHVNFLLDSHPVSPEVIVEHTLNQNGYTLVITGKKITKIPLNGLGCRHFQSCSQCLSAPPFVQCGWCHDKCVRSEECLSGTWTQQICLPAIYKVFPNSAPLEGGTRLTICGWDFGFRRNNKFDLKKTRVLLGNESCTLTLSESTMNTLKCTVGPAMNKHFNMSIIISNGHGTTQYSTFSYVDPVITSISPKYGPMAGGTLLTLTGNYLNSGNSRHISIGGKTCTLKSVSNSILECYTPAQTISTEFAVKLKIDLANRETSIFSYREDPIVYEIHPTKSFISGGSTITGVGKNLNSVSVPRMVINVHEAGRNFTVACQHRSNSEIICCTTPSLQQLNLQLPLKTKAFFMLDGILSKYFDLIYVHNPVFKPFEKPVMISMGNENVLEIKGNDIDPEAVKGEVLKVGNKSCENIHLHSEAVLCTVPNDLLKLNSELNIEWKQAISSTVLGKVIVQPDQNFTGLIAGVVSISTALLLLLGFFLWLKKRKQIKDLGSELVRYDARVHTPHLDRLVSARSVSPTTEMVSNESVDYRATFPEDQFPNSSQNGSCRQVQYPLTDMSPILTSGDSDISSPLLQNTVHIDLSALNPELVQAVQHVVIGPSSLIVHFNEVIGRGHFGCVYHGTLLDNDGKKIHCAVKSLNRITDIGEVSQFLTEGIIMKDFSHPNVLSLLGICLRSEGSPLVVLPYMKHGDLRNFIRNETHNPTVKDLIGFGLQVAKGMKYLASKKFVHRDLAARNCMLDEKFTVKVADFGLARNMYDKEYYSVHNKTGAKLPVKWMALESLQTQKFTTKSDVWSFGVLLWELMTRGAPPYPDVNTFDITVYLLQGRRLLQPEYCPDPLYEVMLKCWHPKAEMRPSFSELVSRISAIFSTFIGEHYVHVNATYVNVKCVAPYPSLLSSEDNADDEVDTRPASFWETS
Experiment: Kinase inhibition experiment (HTRF KinEASE-TK kit), mutant MET D1228N
Assay type: biochemical
Conditions: 10 concentrations, 3-fold dilution
Assay endpoint: IC50 (nM)

Compound: O=C(Nc1ccc(Oc2ccnc3[nH]nc(NCCO)c23)c(F)c1)c1cccc(-c2ccc(F)cc2)[n+]1[O-] [Final product 1]
Value units: nM
IC50: 35.4

Compound: O=C(Nc1ccc(Oc2ccnc3[nH]nc(N[C@H]4CC[C@H](O)CC4)c23)c(F)c1)c1ccc(Cl)c(-c2ccc(F)cc2)[n+]1[O-] [Final product 64]
Value units: nM
IC50: 45.6

(P) C[C@@H](CO)Cn1ccc2ncnc(Oc3ccc(NC(=O)c4cccc(-c5ccc(F)cc5)[n+]4[O-])cc3F)c21 [Final product 170]
(Q) C[C@H](CO)Nc1n[nH]c2nccc(Oc3ccc(NC(=O)c4cccc(-c5ccc(Cl)cc5)[n+]4[O-])cc3F)c12 [Final product 42]
(R) CSc1ccc(C(=O)Nc2ccc(Oc3ccnc4[nH]nc(N[C@H](C)CO)c34)c(F)c2)[n+]([O-])c1-c1ccc(F)cc1 [Final product 86]
Falling order of IC50, please. Please, when replying, give the labels in the order that was requested. Q, P, R
(Q: 36.2 nM, P: 16.2 nM, R: 10.2 nM)

----------
Target: wild type (WT) MET kinase (Homo sapiens)
Construct: purchased Carna 08-151
Sequence (P08581 25-1390): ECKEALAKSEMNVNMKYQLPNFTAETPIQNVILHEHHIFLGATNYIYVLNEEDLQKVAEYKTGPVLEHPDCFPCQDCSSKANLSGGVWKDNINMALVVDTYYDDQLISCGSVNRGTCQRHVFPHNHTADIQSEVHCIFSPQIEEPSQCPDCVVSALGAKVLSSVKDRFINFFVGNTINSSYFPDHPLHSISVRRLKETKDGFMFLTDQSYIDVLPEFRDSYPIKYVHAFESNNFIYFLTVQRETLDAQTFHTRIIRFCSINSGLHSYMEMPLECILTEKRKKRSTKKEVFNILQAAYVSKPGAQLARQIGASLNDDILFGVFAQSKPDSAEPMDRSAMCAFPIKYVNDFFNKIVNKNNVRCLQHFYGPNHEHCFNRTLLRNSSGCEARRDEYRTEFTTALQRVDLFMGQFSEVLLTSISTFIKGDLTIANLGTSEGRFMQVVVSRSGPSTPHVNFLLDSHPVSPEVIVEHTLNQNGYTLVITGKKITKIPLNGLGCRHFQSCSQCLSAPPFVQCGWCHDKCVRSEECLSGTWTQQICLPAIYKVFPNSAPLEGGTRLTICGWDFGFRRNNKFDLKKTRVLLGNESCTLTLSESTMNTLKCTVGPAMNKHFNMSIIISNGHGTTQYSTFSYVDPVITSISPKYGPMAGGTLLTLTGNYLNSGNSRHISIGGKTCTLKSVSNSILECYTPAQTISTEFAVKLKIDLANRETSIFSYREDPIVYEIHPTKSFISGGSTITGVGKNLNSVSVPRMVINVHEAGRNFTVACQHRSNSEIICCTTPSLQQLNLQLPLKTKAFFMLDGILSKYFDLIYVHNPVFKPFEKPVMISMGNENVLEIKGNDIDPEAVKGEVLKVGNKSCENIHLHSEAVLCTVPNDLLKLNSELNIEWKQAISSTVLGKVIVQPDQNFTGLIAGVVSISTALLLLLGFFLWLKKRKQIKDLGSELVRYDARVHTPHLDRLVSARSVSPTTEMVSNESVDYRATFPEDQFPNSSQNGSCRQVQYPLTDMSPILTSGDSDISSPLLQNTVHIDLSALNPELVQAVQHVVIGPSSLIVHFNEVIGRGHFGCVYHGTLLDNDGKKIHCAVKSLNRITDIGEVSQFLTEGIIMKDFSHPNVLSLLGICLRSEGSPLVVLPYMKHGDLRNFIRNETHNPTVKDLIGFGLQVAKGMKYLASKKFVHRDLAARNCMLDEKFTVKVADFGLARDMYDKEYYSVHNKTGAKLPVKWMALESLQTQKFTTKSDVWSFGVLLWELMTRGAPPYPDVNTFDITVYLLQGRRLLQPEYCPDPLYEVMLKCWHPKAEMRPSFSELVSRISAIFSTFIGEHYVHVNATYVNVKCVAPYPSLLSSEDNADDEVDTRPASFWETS
Assay: Kinase inhibition experiment (HTRF KinEASE-TK kit), wild-type MET
Type: biochemical
Settings: 10 concentrations, 3-fold dilution
Assay endpoint: IC50 (nM)

Compound: Cc1ccc(C(=O)Nc2ccc(Oc3ccnc4[nH]nc(N[C@H](C)CO)c34)cc2F)[n+]([O-])c1-c1ccc(F)cc1
Recorded measurement: 5.7
//
Compound: O=C(Nc1ccc(Oc2ccnc3[nH]nc(N[C@@H]4CCC(O)C4)c23)c(F)c1)c1ccc(Cl)c(-c2ccc(F)cc2)[n+]1[O-] (stereo partly shown)
Recorded measurement: 4.7

(1) C[C@H](CO)Nc1n[nH]c2nccc(Oc3cc(F)c(NC(=O)c4ccc(Cl)c(-c5ccc(F)cc5)[n+]4[O-])cc3Cl)c12
(2) C[C@H](CO)Nc1n[nH]c2nccc(Oc3ccc(NC(=O)c4ccc(S(C)(=O)=O)c(-c5ccc(F)cc5)[n+]4[O-])cc3F)c12
(3) O=C(Nc1ccc(Oc2ccnc3[nH]nc(NCC(O)CO)c23)c(F)c1)c1cccc(-c2ccc(F)cc2)[n+]1[O-] (stereo not shown)
Falling order of IC50, please. Please, when replying, give the labels in the order that was requested. 2, 1, 3

(a) C[C@H](CO)Nc1n[nH]c2nccc(Oc3ccc(NC(=O)c4cccc(-c5ccc(F)cc5F)[n+]4[O-])cc3F)c12
(b) C[C@H](CO)Nc1n[nH]c2nccc(Oc3ccc(NC(=O)c4ccc(C5CC5)c(-c5ccc(F)cc5)[n+]4[O-])cc3F)c12
(c) O=C(Nc1ccc(Oc2ccnc3[nH]nc(N4CCC(O)CC4)c23)c(F)c1)c1cccc(-c2ccc(F)cc2)[n+]1[O-]
Give the ascending ranking of the items by reported IC50. Please, when replying, give the labels in the order that was requested. a, c, b

----------
Target: MET F1200I (Homo sapiens, UniProt P08581, F1200I)
Construct: purchased Signalchem M52-12GG/Y767-2
Assay: Kinase inhibition experiment (HTRF KinEASE-TK kit), mutant MET F1200I
Assay type: biochemical
Settings: 10 concentrations, 3-fold dilution
Assay endpoint: IC50 (nM)

(a) C[C@H](CO)Nc1n[nH]c2nccc(Oc3ccc(NC(=O)c4ccc(F)c(-c5ccc(Cl)cc5)[n+]4[O-])cc3F)c12 [Final product 56]
(b) O=C(Nc1ccc(Oc2ccnc3[nH]nc(NCCO)c23)c(F)c1)c1cccc(-c2ccc(F)cc2)[n+]1[O-] [Final product 1]
(c) O=C(Nc1ccc(Oc2ccnc3[nH]nc(N4CCC[C@H](CO)C4)c23)c(F)c1)c1cccc(-c2ccc(F)cc2)[n+]1[O-] [Final product 33]
Put the items in sequence by IC50, from largest down. Please, when replying, give the labels in the order that was requested. c, a, b
